B1: DYRK1B (parent)
chain: RFQDLVLRMLEYEPAARISPLGAL

Variants of: B1
protocol summary: protein stability index of a GFP-peptide fusion (GPS, HEK-293T) (PSI 1-6); higher = more stable;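 further: lentivirally expressed fusions sorted by FACS into six bins by GFP to DsRed ratio, PSI derived from sequencing read proportions per bin multiplied by bin number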
condition set: c terminus: a fixed tail appended
experimental endpoint: protein stability index

**Query** Value lookup for protein stability index; key = RFQDLVLRMLEYEPAARISPLLAL [G22L]
**Result** 2.02
